Assay: Plasma and lung epithelial lining fluid (ELF) pharmacokinetics in ICR mice
Format: in vivo
Conditions: ICR, mouse, plasma; 20 mg/kg IP; read-out: plasma half-life (converted)
Numbered stars: 1 amine (or outer) side, 2 acyl side, 3 side chain; on linkers, the order of the positions; unused ones are H or OH. Bridge positions count the residues as written; N and C are the ends. Square brackets hold non-standard residues; d marks the D form. Peptide text beside a SMILES is read from it. * marks the point of attachment. ξ: configuration not given here. Orn(4R-OH,5R-OCH2CH2NMe3+) = C[N+](C)(C)CCO[C@@H](N[*:3])[C@H](O)C[C@H](N[*:1])C(=O)[*:2]; pTerphenylCO(4''-OnC5H11) = CCCCCOc1ccc(-c2ccc(-c3ccc(C(=O)*)cc3)cc2)cc1; hTyr(3S-OH,4S-OH) = N[C@H](C(=O)O)[C@H](O)[C@@H](O)c1ccc(O)cc1; X1 = C[C@H]1CN([*:1])C(C(=O)[*:2])C1O; Hyp = O=C(O)[C@@H]1C[C@@H](O)CN1; ξT = CC(O)C(N)C(=O)O
Measured attribute: half-life (h)
One number for each entry, in h.

Measured half-life, CCCCCOc1ccc(-c2ccc(-c3ccc(C(=O)N[C@H]4C[C@@H](O)[C@@H](OCC[N+](C)(C)C)NC(=O)C5C(O)[C@@H](C)CN5C(=O)[C@H]([C@@H](C)O)NC(=O)[C@H]([C@H](O)[C@@H](O)c5ccc(O)cc5)NC(=O)[C@@H]5C[C@@H](O)CN5C(=O)C(C(C)O)NC4=O)cc3)cc2)cc1 (stereo partly drawn) [CD101] ({pTerphenylCO(4''-OnC5H11)}-[Orn(4R-OH,5R-OCH2CH2NMe3+)][ξT][Hyp][hTyr(3S-OH,4S-OH)]T[X1]; lactam 1-C) : 21.1

###

Test: Single-dose plasma pharmacokinetics in mice, IP
Type: in vivo
Conditions: ICR Swiss/CD1, mouse, IP doses of 1, 4, 16 and 64 mg/kg, read-out: elimination half-life, range
Protocol: Pharmacokinetics. […] Plasma from groups of three mice per time point (1, 3, 6, 12, 24, 48, and 72-h) was collected. The plasma drug concentrations were determined by liquid chromatography-tandem mass spectrometry. A noncompartmental model was used in the pharmacokinetic analysis. Elimination half-life was calculated by nonlinear least-squares technique. The area under the concentration-time curve (AUC) was calculated by the trapezoidal rule. […]
Numbered stars: 1 amine (or outer) side, 2 acyl side, 3 side chain; on linkers, the order of the positions; unused ones are H or OH. Bridge positions count the residues as written; N and C are the ends. Square brackets hold non-standard residues; d marks the D form. Peptide text beside a SMILES is read from it. * marks the point of attachment. ξ: configuration not given here. Orn(4R-OH,5R-OCH2CH2NMe3+) = C[N+](C)(C)CCO[C@@H](N[*:3])[C@H](O)C[C@H](N[*:1])C(=O)[*:2]; pTerphenylCO(4''-OnC5H11) = CCCCCOc1ccc(-c2ccc(-c3ccc(C(=O)*)cc3)cc2)cc1; hTyr(3S-OH,4S-OH) = N[C@H](C(=O)O)[C@H](O)[C@@H](O)c1ccc(O)cc1; X1 = C[C@H]1CN([*:1])C(C(=O)[*:2])C1O; Hyp = O=C(O)[C@@H]1C[C@@H](O)CN1; ξT = CC(O)C(N)C(=O)O
Measured attribute: half-life

Measured half-life, CCCCCOc1ccc(-c2ccc(-c3ccc(C(=O)N[C@H]4C[C@@H](O)[C@@H](OCC[N+](C)(C)C)NC(=O)C5C(O)[C@@H](C)CN5C(=O)[C@H]([C@@H](C)O)NC(=O)[C@H]([C@H](O)[C@@H](O)c5ccc(O)cc5)NC(=O)[C@@H]5C[C@@H](O)CN5C(=O)C(C(C)O)NC4=O)cc3)cc2)cc1 (stereo partly drawn) [CD101] ({pTerphenylCO(4''-OnC5H11)}-[Orn(4R-OH,5R-OCH2CH2NMe3+)][ξT][Hyp][hTyr(3S-OH,4S-OH)]T[X1]; lactam 1-C) : 28 to 41 h
